test: recombinant barcode read abundance after kanamycin selection (control-corrected) (log10(CPM+1)); higher = more efficient recombination; sequences stand for … in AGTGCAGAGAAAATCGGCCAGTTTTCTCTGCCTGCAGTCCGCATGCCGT…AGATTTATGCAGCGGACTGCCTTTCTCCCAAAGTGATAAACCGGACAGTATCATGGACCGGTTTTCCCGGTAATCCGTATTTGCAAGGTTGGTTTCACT; site = the 11-nt target
Exercise: state measured recombinant barcode read abundance (log10) for each of the sequences provided.
Numbers only.

Worked cases, answers included:
AAGTTTACTTGGGTTCTAACCTGTTGCTT (site AAGTTTACTAA) ... 0.177
CGGGCCACTTGGGTTCTAACCTGTTGCGT (site CGGCCCACTCC) ... 0.175
TACAAGCCTTGGGTTCTAACCTGTTGCCT (site TACAAGCCTAG) ... 0.338
CGTAGGACTTGGGTTCTAACCTGTTGCCT (site GGTAGGACTAG) ... 0.0902
CTTCAACCTTGGGTTCTAACCTGTTGCCT (site CTTCAACCTAG) ... 1.75
TAGCTAGCTTGGGTTCTAACCTGTTGCGT (site GCTTACCCTTA) ... 0.0618

Respectfully, I request recombinant barcode read abundance (log10) for each entry included below.
1. CTGATCCCTTGGGTTCTAACCTGTTGCGG (site CTGGTCCCTCC)
2. CGTGGGGCTTGGGTTCTAACCTGTTGCCT (site CGTGGGGCTAG)
3. AACCGCCCTTGGGTTCTAACCTGTTGCCT (site AACCGCCCTAG)
4. AATGCATCTTGGGTTCTAACCTGTTGCCT (site AATGAATCTAG)
5. CATGCTACTTGGGTTCTAACCTGTTGCTC (site CATGCTACTGA)
6. GTCACTACTTGGGTTCTAACCTGTTGCCG (site GTCCCTACTCG)

1. 0.136
2. 0.156
3. 0.478
4. 0.0891
5. 0.627
6. 0.0387

* * *

I'd appreciate it if you could supply recombinant UMI read abundance (log10) values for the items below.
assay: recombinant UMI read abundance after kanamycin selection (control-corrected) (log10(CPM+1)); higher = more efficient recombination; extreme values may be limits of the assay; sequences stand for … in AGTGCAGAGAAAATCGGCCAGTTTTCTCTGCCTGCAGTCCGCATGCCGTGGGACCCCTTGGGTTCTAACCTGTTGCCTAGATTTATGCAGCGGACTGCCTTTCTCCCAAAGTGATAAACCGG…AGGTTGGTTTCACT; site = the 11-nt donor
Numbers only.

Reference set, count: 3
TTTGTTCCATGGACCGGTTTTCCCGGTAATCCGTATTTGGT (site ATTGTTCCTAC) ... 0.0334
GGGGCATCATGGACCGGTTTTCCCGGTAATCCGTATTTGCA (site GGGGCATCTTG) ... 2.13
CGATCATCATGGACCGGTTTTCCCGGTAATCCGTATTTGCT (site CGATCATCTCG) ... 0

Required: recombinant UMI read abundance (log10), one value per sequence below.
1. CCCTACTCATGGACCGGTTTTCCCGGTAATCCGTATTTGGG (site CCCTCCTCTCC)
2. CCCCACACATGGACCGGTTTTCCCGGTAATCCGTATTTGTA (site CCCCACACTCA)
3. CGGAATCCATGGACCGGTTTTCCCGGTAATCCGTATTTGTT (site AGGAATCCTAG)
4. TGCTTGACATGGACCGGTTTTCCCGGTAATCCGTATTTGCT (site TGCTTGACTAG)
5. AAATCTACATGGACCGGTTTTCCCGGTAATCCGTATTTGTG (site AAATCTACTCA)
6. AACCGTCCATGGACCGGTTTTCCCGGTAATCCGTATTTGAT (site AAACGTCCTAT)
7. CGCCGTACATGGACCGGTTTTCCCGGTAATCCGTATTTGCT (site CGCCGCACTAG)

1: 0.00345; 2: 0.0202; 3: 0; 4: 0.922; 5: 0.209; 6: 0.00674; 7: 0.796
